Values from ChEMBL document CHEMBL1157759

# test: Cytotoxicity against human MT2 cells after 5 days by XTT assay
observation-type: CC50 at 120 h

> print(dat)
                                   molecule  observation.type  endpoint.result
1  Nc1ncnc2c1ncn2[C@@H]1O[C@H](OCP(=O)(N[C@@H](Cc2ccccc2)C(=O)OCC2CCC2)Oc2ccccc2)C=C1F (some centres not stated)     CC50 at 120 h          46.5 µM
2  Nc1ncnc2c1ncn2[C@@H]1O[C@H](OCP(=O)(O)O)C=C1F     CC50 at 120 h         > 100 µM
3  CC(C)COC(=O)CNP(=O)(CO[C@@H]1C=C(F)[C@H](n2cnc3c(N)ncnc32)O1)NCC(=O)OCC(C)C     CC50 at 120 h         > 100 µM
4  C[C@H](NP(=O)(CO[C@@H]1C=C(F)[C@H](n2cnc3c(N)ncnc32)O1)Oc1ccccc1)C(=O)OC1CCCC1 (some centres not stated)     CC50 at 120 h         > 100 µM
5  CC[C@H](NP(=O)(CO[C@@H]1C=C(F)[C@H](n2cnc3c(N)ncnc32)O1)Oc1ccccc1)C(=O)OCC(C)C (some centres not stated)     CC50 at 120 h         > 100 µM
6  CC(C)COC(=O)[C@H](Cc1ccccc1)NP(=O)(CO[C@@H]1C=C(F)[C@H](n2cnc3c(N)ncnc32)O1)OCC(F)(F)F (some centres not stated)     CC50 at 120 h         > 100 µM
7  CCCOC(=O)[C@H](C)NP(=O)(CO[C@@H]1C=C(F)[C@H](n2cnc3c(N)ncnc32)O1)Oc1ccccc1 (some centres not stated)     CC50 at 120 h            31 µM

###

# tested-target: UniProt Q72547
observation-type: IC50 (nM)

> print(dat)
                           smiles.structure  observation.type  measure.unit  endpoint.result
1  Nc1ncnc2c1ncn2[C@@H]1O[C@H](OCP(=O)(O)OP(=O)(O)OP(=O)(O)O)C=C1F              IC50            nM             1900

###

# test: Cytotoxicity against human MT2 cells after 5 days by XTT assay
Flag rule - CC50 at 120 h less than 40 µM flags 1; the remaining entries get 0.

> print(dat)
                                    molecule  class.assignment
 1  CCCCOC(=O)[C@H](CC)NP(=O)(CO[C@@H]1C=C(F)[C@H](n2cnc3c(N)ncnc32)O1)Oc1ccccc1 (stereo partly specified)                 0
 2  CCCCOC(=O)[C@H](C)NP(=O)(CO[C@@H]1C=C(F)[C@H](n2cnc3c(N)ncnc32)O1)Oc1ccccc1 (stereo partly specified)                 0
 3  CC(C)COC(=O)[C@H](C)NP(=O)(CO[C@@H]1C=C(F)[C@H](n2cnc3c(N)ncnc32)O1)N[C@@H](C)C(=O)OCC(C)C                 0
 4  CCOC(=O)[C@H](C)NP(=O)(CO[C@@H]1C=C(F)[C@H](n2cnc3c(N)ncnc32)O1)OCC(F)(F)F (stereo partly specified)                 0
 5  CC(C)OC(=O)[C@H](C)NP(=O)(CO[C@@H]1C=C(F)[C@H](n2cnc3c(N)ncnc32)O1)Oc1ccccc1 (stereo in doubt; 24)                 0
 6  CC(C)COC(=O)[C@H](Cc1ccccc1)NP(=O)(CO[C@@H]1C=C(F)[C@H](n2cnc3c(N)ncnc32)O1)Oc1ccccc1 (stereo partly specified)                 1
 7  CCCCOC(=O)[C@H](CC)NP(=O)(CO[C@@H]1C=C(F)[C@H](n2cnc3c(N)ncnc32)O1)N[C@@H](CC)C(=O)OCCCC                 0
 8  CCCCOC(=O)[C@H](C)NP(=O)(CO[C@@H]1C=C(F)[C@H](n2cnc3c(N)ncnc32)O1)N[C@@H](C)C(=O)OCCCC                 0
 9  C[C@H](Cn1cnc2c(N)ncnc21)OCP(=O)(O)O [TENOFOVIR ANHYDROUS]                 0
10  CCCCCOC(=O)[C@H](C)NP(=O)(CO[C@@H]1C=C(F)[C@H](n2cnc3c(N)ncnc32)O1)Oc1ccccc1 (stereo partly specified)                 1
11  C[C@H](NP(=O)(CO[C@@H]1C=C(F)[C@H](n2cnc3c(N)ncnc32)O1)Oc1ccccc1)C(=O)OC1CCC1 (stereo in doubt; 18r)                 0
12  CCC(CC)OC(=O)[C@H](C)NP(=O)(CO[C@@H]1C=C(F)[C@H](n2cnc3c(N)ncnc32)O1)Oc1ccccc1 (stereo partly specified)                 1
13  CCCCOC(=O)[C@H](Cc1ccccc1)NP(=O)(CO[C@@H]1C=C(F)[C@H](n2cnc3c(N)ncnc32)O1)N[C@@H](Cc1ccccc1)C(=O)OCCCC                 1
14  CC(C)COC(=O)CNP(=O)(CO[C@@H]1C=C(F)[C@H](n2cnc3c(N)ncnc32)O1)Oc1ccccc1 (stereo partly specified)                 1
15  CCCCSC(=O)[C@@H](Cc1ccccc1)NP(=O)(CO[C@@H]1C=C(F)[C@H](n2cnc3c(N)ncnc32)O1)Oc1ccccc1 (stereo partly specified)                 0
16  Nc1ncnc2c1ncn2[C@@H]1O[C@H](OCP(=O)(N[C@@H](Cc2ccccc2)C(=O)OCC2CC2)Oc2ccccc2)C=C1F (stereo partly specified)                 0
